Every entry's value here was drawn from PubChem BioAssay.

Experiment description: probe aLefty2 binding to arrayed compounds – biochemical, biotinylated probe, 635/667 nm fluorescence, primary screen (AID 1094);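 also: score merges spot fluorescence near 667 nm with spot signal-to-noise ratio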
Experimental setup: small-molecule microarray, higher = more signal
I'd appreciate it if you could supply composite z-score values for the items below.
Just the number.

For the molecule shown here, `CCOC(=O)C[C@H]1[C@H](OC(=O)c2ccc(C(=O)c3ccccc3)cc2)[C@@H](NC(=O)c2ccc3ccccc3n2)c2cc(OCCCO)ccc2N1C(=O)Cc1ccc(OC)cc1` , give the reported composite z-score.
-0.157

For the molecule shown here, COc1cc(C(O)C2C=CC3C(=O)N(C)C(=O)C3N2Nc2ccccc2)cc(OC)c1OC (stereo not drawn) , give the reported composite z-score.
0.581

For the molecule shown here, `Cc1ccc(S[C@]2(C(=O)NCc3ccccc3)CC(=O)N(C3CCCCC3)[C@@H]2c2ccc(CO)cc2I)cc1` , give the reported composite z-score.
-0.0948

For the molecule shown here, O=C1OCCC=C[C@H]2OC34C=CCN(Cn5nnc6ccccc65)C(=O)[C@H]3N(CCCO)C(=O)[C@@H]4C12 (stereo partly drawn) , give the reported composite z-score.
-0.209

For the molecule shown here, `CCC#CCN(Cc1ccccc1Br)[C@H](/C=C/C1CC1)[C@@H](O)Cc1ccccc1` , give the reported composite z-score.
0.208

For the molecule shown here, `CCOC(=O)C1=C[C@@H](c2ccccc2)N(S(=O)(=O)c2ccc(C)cc2)[C@H]1c1ccc(OC)cc1` , give the reported composite z-score.
0.338

For the molecule shown here, `COC(=O)c1c(CC[C@@H](CO)NC(=O)N[C@@H](C)Cn2cc(-c3ccccn3)nn2)oc(C(C)=O)c1C(=O)OC` , give the reported composite z-score.
-0.115

For the molecule shown here, CC(C)C(CO)N1C(=O)[C@@H]2C3C(=O)OCCC/C=C\[C@H]3OC23C=CCN(Cn2nnc4ccccc42)C(=O)[C@@H]13 (stereo partly drawn) , give the reported composite z-score.
-0.159
